Data origin: patent US20220119506A1

Biological target: T1, VP28 (White spot syndrome virus)
T1 construct: Recombinant antigen; also called Coat protein VP28
T1 chain: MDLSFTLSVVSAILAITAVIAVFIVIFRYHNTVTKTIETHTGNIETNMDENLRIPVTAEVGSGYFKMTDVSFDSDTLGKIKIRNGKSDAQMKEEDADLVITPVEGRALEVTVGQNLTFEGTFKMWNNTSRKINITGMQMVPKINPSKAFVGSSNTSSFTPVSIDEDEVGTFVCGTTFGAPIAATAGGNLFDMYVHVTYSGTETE
Experiment: phage ELISA, antigen-coated wells
property.measured: binding above PBS-coated wells

# binder, property.measured, result.value
data = [
    ("NBX0723 (VHH, on phage in the phage ELISA) VHH: QVQLQESGGGLVQAGGSLRLSCAASGRTFSSYPMGWFRQAPGSEREQIAGISRSGVPGKYADSVSGRFTISRDNAKNTLYLQMNSLKPEDTAVYYCAARSIYSNNYSYWGQGTQVTVSS", "binding above PBS-coated wells", "≥ 50%"),
    ("NBX0746 (VHH, on phage in the phage ELISA) VHH: QVQLQESGGGLVQAGGSLRLSCAASGRTFSSYAMGWFRRAPGKEREQIAGISRSGNPGKYADSVSGRFTISRDNAKNTLYLQMNSLKPEDTAVYYCAARQIYSNNYSYWGQGTQVTVSS", "binding above PBS-coated wells", "≥ 50%"),
    ("NBX0724 (VHH, on phage in the phage ELISA) VHH: QVQLQQSGGGLVQAGGSLRLSCAASGRTFSSYPMGWFRQAPGSEREQIAGISRSGVSGKYADSVSGRFTISRDNAKNTLYLQMNSLKPEDTAVYYCAARSIYSNNYSYWGQGTQVTVSS", "binding above PBS-coated wells", "≥ 50%"),
    ("NBX0722 (VHH, on phage in the phage ELISA) VHH: QVQLQESGGGLVQAGGSLRLSCRASGRTFSSYPMGWFRQAPGKEREQIAGISRSGDPGKYAASVSGRFTISRDNAKNTLYLQMNSLKPEDTAVYYCAARQIYSNNYSYWGQGTQVTVSS", "binding above PBS-coated wells", "≥ 50%"),
    ("NBX0725 (VHH, on phage in the phage ELISA) VHH: QVQLQQSGGGLVQAGGSLRLSCTASGRTFSSYPMGWFRQAPGKEREQIAGISRSGNPGKYADSVSGRFTISRDNAKNTLYLQMNSLKPEDTAVYYCAARQIYSNNYSYWGQGTQVTVSS", "binding above PBS-coated wells", "≥ 50%"),
]
